Test system: Nucleic Acid
assay method text: Stabilization of 5'-d[(G3T2A)3G3]-3' quadruplex DNA assessed as change in melting temperature at 10 uM by CD-spectrophotometry
Type: nucleic-acid assay
# label = y if ΔTm < 10 °C else n

Sample answers from the record:
structure notation: CN(C)CCCNc1ccnc2c1ccc1c(NCCCN(C)C)ccnc12
category label: n
//
structure notation: N=C(N)NCCCCNc1ccnc2c1ccc1c(NCCCCNC(=N)N)ccnc12
category label: n
//
structure notation: NCCCCNc1ccnc2c1ccc1c(NCCCCN)ccnc12
category label: n
//
structure notation: CN(C)CCCCNc1ccnc2c1ccc1c(NCCCCN(C)C)ccnc12
category label: n

[Q] Lab log: compare recorded ΔTm with 10 °C; is it strictly lower for NCCCNc1ccnc2c1ccc1c(NCCCN)ccnc12 ?
[A] n

[Q] API: query returns whether the molecule falls strictly under 10 °C in ΔTm. Query: NCCNc1ccnc2c1ccc1c(NCCN)ccnc12
[A] y

[Q] For this molecule, is ΔTm lower than 10 °C? N=C(N)NCCCNc1ccnc2c1ccc1c(NCCCNC(=N)N)ccnc12
[A] n

[Q] Here's an entry: CN(C)CCNc1ccnc2c1ccc1c(NCCN(C)C)ccnc12 . Is its ΔTm below 10 °C?
[A] y

Reference source for all entries: ChEMBL document CHEMBL1153095
